Test system: IGROV1 ovarian
Assay: NCI-60 one-dose screen, 48 h (100 = growth as untreated, 0 = no growth, -100 = all killed)
Settings: 10 µM unless noted
The panel holds about 83,000 compounds, 20% with a hit somewhere; the sample as a whole holds those more often.
For each record, check the reported growth: if it is below 60% write 1 (yes), else write 0 (no).

Just wondering, is growth of Cc1cc(N)n(S(=O)(=O)c2oc(-c3ccccc3)nc2C#N)n1 below 60%?
0 (no)

Just wondering, is growth of COc1ccc(-c2nc(N3CCCC3=O)sc2Br)cc1OC below 60%?
0 (no)

Just wondering, is growth of O=C(Nc1ccncc1)C(=O)c1cn(S(=O)(=O)c2ccc(Cl)cc2)c2ccccc12 below 60%?
1 (yes)

Just wondering, is growth of O=C(NNC(=S)Nc1ccccc1)c1cc2ccc1CCc1ccc(cc1)CC2 below 60%?
0 (no)

Just wondering, is growth of O=C(Nc1cccc(-n2cc(-c3ccncc3)c(-c3ccc(Cl)c(O)c3)n2)c1)Nc1cc(C(F)(F)F)cc(C(F)(F)F)c1 below 60%?
1 (yes)

---

System: CAKI-1 renal
Test: NCI-60 one-dose screen, 48 h (100 = growth as untreated, 0 = no growth, -100 = all killed)
Details: 10 µM unless noted
This is part of a sample that, as a whole, favours compounds with a hit. Of some 83,000 tested, about 20% had one in any assay.
# binning rule on growth: low group = under 10%, middle group = from 10% up to 80%, high group = 80% and over

Assign a category based on measured growth for O=C(Nc1ccncc1)C(=O)c1cn(S(=O)(=O)c2ccc(Oc3ccccc3)cc2)c2ccccc12 and give only the class name.
middle group

Assign a category based on measured growth for COc1ccc(-c2c(N)n[nH]c2-c2cc3c(c(OC)c2OC)OCO3)cc1 and give only the class name.
high group

Assign a category based on measured growth for CN1CCN(CCCOc2ccc3nc(Nc4ccc(Cl)c(C(F)(F)F)c4)ccc3c2)CC1 and give only the class name.
high group

Assign a category based on measured growth for COc1ccccc1CNCCCN1C(=O)c2ccc3c4c(ccc(c24)C1=O)C(=O)N(CCCNCCCCNCCCN)C3=O and give only the class name.
low group

Assign a category based on measured growth for c1ccc(-c2nc(N3CCNCC3)c3nc(-c4ccccc4)oc3n2)cc1 and give only the class name.
low group

Assign a category based on measured growth for CN(C)CCCN(c1nc(C(Cl)(Cl)Cl)ns1)c1nc(C(Cl)(Cl)Cl)ns1 and give only the class name.
middle group

Assign a category based on measured growth for COc1ccc2[nH]c(C(=O)OCc3ccc4c(Cl)cc(Cl)c(O)c4n3)cc2c1 and give only the class name.
low group

Assign a category based on measured growth for COc1ccc(C(=O)N2NC(=O)/C(=C/c3ccc(Br)cc3)N=C2c2ccccc2)cc1 and give only the class name.
high group

Assign a category based on measured growth for Cc1cc(N/N=C/c2nc(-c3ccccc3)oc2C)c2cc(Cl)ccc2n1 and give only the class name.
middle group

Assign a category based on measured growth for COc1cccc(/C=C/C(=O)Nc2cc(OC)c3c(c2)OCO3)c1 and give only the class name.
high group

---

System: SNB-19 CNS
Test: NCI-60 one-dose screen, 48 h
Settings: 10 µM unless noted
About 83,000 compounds went through this panel and 20% of them were active in at least one assay; those are over-represented in the sample as a whole. The source made the active and inactive calls. The calls were made as follows: active = growth percent below 10; inactive = the rest.
Your reply should match one of these outcome classes. Yes (active), No (inactive)

Please state the recorded outcome for this molecule: Cc1nc2ncccc2nc1Nc1ccc(S(=O)(=O)Nc2cncs2)cc1
No

Please state the recorded outcome for this molecule: O=[N+]([O-])c1cccc(-c2nc3sccn3c2-c2ccnc(NCCCNS(=O)(=O)c3ccc(C(F)(F)F)cc3)n2)c1
No

Please state the recorded outcome for this molecule: COc1ccc(-c2[nH]nc(N)c2-c2cc(OC)c3c(c2)OCO3)cc1
No

Please state the recorded outcome for this molecule: CC(C)(C)N1CCC1C(N)=O (centres undefined)
No

Please state the recorded outcome for this molecule: CC1(C)C(=O)/C(=C\c2ccc(C(F)(F)F)cc2)C[C@]2(C)[C@H]3CC[C@@H]4[C@H]5[C@H](C(=O)/C=C/c6ccc(C(F)(F)F)cc6)CC[C@]5(CO)CC[C@@]4(C)[C@]3(C)CC[C@@H]12
No

Please state the recorded outcome for this molecule: c1cc(C2=N[C@@H]3c4ccccc4C[C@@H]3O2)nc(C2=N[C@@H]3c4ccccc4C[C@@H]3O2)c1
No

Please state the recorded outcome for this molecule: COc1ccc(-c2nc(N3CCCC3=O)sc2Br)cc1OC
No

Please state the recorded outcome for this molecule: Clc1cc(Cl)cc(-c2ccc(-c3ccc(/C=N/NC4=NCCN4)cc3)s2)c1
No

Please state the recorded outcome for this molecule: Cc1cc(C2(c3cc(C)c(O)cc3C)OS(=O)(=O)c3ccccc32)c(C)cc1O
No

Please state the recorded outcome for this molecule: COc1cc(C2CC(c3ccc4c(c3)OCO4)=NN2C=O)cc(OC)c1OC (centres undefined)
No

Please state the recorded outcome for this molecule: CCOC(=O)C1C(=O)C=C(c2ccc(OC)cc2)CC1c1sc(N(C)Cc2ccccc2)nc1Cl (centres undefined)
No

Please state the recorded outcome for this molecule: Cn1cnc2c(N3CCN(C(=O)OCc4ccc5c(Cl)cc(Cl)c(O)c5n4)CC3)nc(Cl)nc21
No

Please state the recorded outcome for this molecule: CCOC(=O)c1cc(C(=O)c2cc(OC)c(OC)c(OC)c2)n2c1ccc1ccccc12
No

Please state the recorded outcome for this molecule: C=C1C(=O)O[C@@H]2[C@@H]3O[C@@](C)(CC/C=C(\C)CCC[C@@H]2C)[C@H](O)C[C@@H]13
No

Please state the recorded outcome for this molecule: Nc1cccc(Cl)c1N
No

Please state the recorded outcome for this molecule: COc1ccc(C(=O)N2NC(=O)/C(=C/c3ccc(Br)cc3)N=C2c2ccccc2)cc1
No

Please state the recorded outcome for this molecule: O=c1c2sc3ncccc3c2nnn1-c1ccccc1
No

Please state the recorded outcome for this molecule: Cc1ccc(S(=O)(=O)n2cc(C(=O)C(=O)N3CCOCC3)c3ccccc32)cc1
No

Please state the recorded outcome for this molecule: N[C@H]1CN(C(=O)c2cc3cc(Br)c(F)c(F)c3[nH]2)C[C@@H]1O
No

Please state the recorded outcome for this molecule: O=Nc1c(-c2cccc([N+](=O)[O-])c2)nc2ncccn12
No

Please state the recorded outcome for this molecule: O=C(Nc1cccc(-n2cc(-c3ccncc3)c(-c3ccc(Cl)c(O)c3)n2)c1)c1ccccc1
No

Please state the recorded outcome for this molecule: c1ccc(-c2nc(N3CCNCC3)c3nc(-c4ccccc4)oc3n2)cc1
Yes

Please state the recorded outcome for this molecule: S=c1[nH]nc(-c2cc3ccc2CCc2ccc(cc2)CC3)n1-c1ccccc1
No

Please state the recorded outcome for this molecule: Cc1ccc(S(=O)(=O)n2cc(C(=O)C(=O)Nc3ccncc3)c3ccccc32)cc1
No

---

Would you mind telling me the reported growth of each entry?
Test system: T-47D breast
Experiment: NCI-60 one-dose screen, 48 h (100 = growth as untreated, 0 = no growth, -100 = all killed)
Details: 10 µM unless noted
Compounds without any hit were thinned out: in the full panel of roughly 83,000, 20% have a hit. The source made the active and inactive calls. The calls were made as follows: active = growth percent below 10; inactive = the rest.

CCCCCCCCCCCCNC(=O)[C@H]1CSC(c2cc(Br)cs2)N1 (stereo partly specified) has a reported growth of 39.4% (inactive)

Nc1nnc(-c2ccc3ccccc3c2O)o1 has a reported growth of 87.2% (inactive)

O=C1NN(C(=O)c2ccc(Cl)cc2)C(c2ccccc2)=N/C1=C\c1cn(-c2ccccc2)nc1-c1ccccc1 has a reported growth of 90.4% (inactive)

COc1cc2c(c(OC)c1OC)-c1ccc(N)c(=O)cc1[C@@H](NC(C)=O)CC2 has a reported growth of 59.7% (inactive)

O=C(NS(=O)(=O)c1ccccc1)n1cc(-c2ccncc2)c(-c2ccc(Cl)c(O)c2)n1 has a reported growth of 107% (inactive)

CO[C@H]1NC(=O)N(S(=O)(=O)c2ccc(Cl)cc2)[C@@H]1OC has a reported growth of 105% (inactive)

COc1cc(/C=C/C(=O)c2ccc(Nc3ncnc4cc(OC)c(OC)cc34)cc2)cc(OC)c1 has a reported growth of 100% (inactive)

COc1c2occc2c(OC)c2c(=O)c(-c3cc(-c4ccc(F)cc4)c(C#N)c(N)n3)c(C)oc12 has a reported growth of 30.7% (inactive)

COc1cc(-c2nn(-c3cccc(NC(=O)c4cccc(C(F)(F)F)c4)c3)cc2-c2ccncc2)ccc1Cl has a reported growth of 29% (inactive)

CCc1ccc(-c2ccc(=O)n(-c3ccc(S(N)(=O)=O)cc3)n2)cc1 has a reported growth of 33.4% (inactive)

O=C(c1c[nH]c(=O)c(-c2ccccc2)c1)c1ccccc1O has a reported growth of 78.4% (inactive)

---

System: SK-MEL-5 melanoma
Assay: NCI-60 one-dose screen, 48 h (100 = growth as untreated, 0 = no growth, -100 = all killed)
Conditions: 10 µM unless noted
This is part of a sample that, as a whole, favours compounds with a hit. Of some 83,000 tested, about 20% had one in any assay.
VALUE_KIND: growth (%)
Supply the numeric figure in %, leaving out any unit text.

Cc1c(C(N)=O)sc2c1c(=O)n(Cc1ccccc1)c1nnc(Nc3ccccc3)n21 has a reported growth of 105

CC12CCC3C4(C)COC(c5ccccc5Cl)OC4CCC3(C)C1CC(C1=CCOC1=O)O2 (stereo unspecified) has a reported growth of 17.1

CCCCCCCCC(C)OC(=O)c1nn(C(C)=O)c2ccccc12 (stereo unspecified) has a reported growth of 97.7

COc1cc(-c2nn(-c3cccc(NC(=O)Nc4ccc(Cl)c(C(F)(F)F)c4)c3)cc2-c2ccncc2)ccc1Cl has a reported growth of -65.3

CCn1c2ccccc2c2cc(NC(=O)Nc3ccc([N+](=O)[O-])cc3C)ccc21 has a reported growth of 48.1

COc1ccc(Nc2[nH]n3c(=O)cc(C)nc3c2C(N)=O)c(OC)c1 has a reported growth of 98.1

CC(=O)c1cc2c(N)c(C(=O)Nc3cccc4c3OCCO4)sc2nc1C has a reported growth of 95.3

CCCCCCCCCCCCCCCCCCNC(=O)[C@H]1CSC(c2ccc(OC)cc2O)N1 (stereo partly specified) has a reported growth of 93.1

NC1N=C(SCC(=O)N2CCN(c3cc4c(cc3F)c(=O)c(C(=O)O)cn4C3CC3)CC2)NC(=O)/C1=C/c1ccc(Cl)cc1 (stereo unspecified) has a reported growth of 102

COc1cc(/C(C#N)=C/c2ccc3c(c2OC)OCO3)cc2c1OCO2 has a reported growth of 36.9

CCc1ccc(-c2ccc(=O)n(-c3ccc(S(N)(=O)=O)cc3)n2)cc1 has a reported growth of 12.9
